target: UniProt:P10520; experiment: viability-normalized secreted streptokinase activity reduction – plasminogen activation absorbance, OD405, dose response (AID 1914); type: functional, Streptococcus pyogenes M1 GAS;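 also: secreted streptokinase activity via plasminogen activation per viability signal from cell pellet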
Sequence (P10520 whole entry): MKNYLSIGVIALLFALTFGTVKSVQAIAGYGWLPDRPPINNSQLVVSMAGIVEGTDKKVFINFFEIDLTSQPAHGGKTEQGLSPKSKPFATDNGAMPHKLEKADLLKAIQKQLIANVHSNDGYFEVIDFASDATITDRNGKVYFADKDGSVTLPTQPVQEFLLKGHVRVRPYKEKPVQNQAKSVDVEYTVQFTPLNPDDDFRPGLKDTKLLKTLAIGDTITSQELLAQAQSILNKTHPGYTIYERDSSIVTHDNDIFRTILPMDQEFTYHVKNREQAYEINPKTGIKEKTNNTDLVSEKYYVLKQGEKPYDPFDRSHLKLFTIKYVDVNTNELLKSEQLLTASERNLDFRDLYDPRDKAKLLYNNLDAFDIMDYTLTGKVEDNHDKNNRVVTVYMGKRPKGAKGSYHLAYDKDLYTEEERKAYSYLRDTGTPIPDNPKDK
Calls of active or inactive are those of the source. Rule as the data show it: actives have a measured EC50 and inactives only a lower limit.
measuredParameter: EC50

[
  {
    "compound": "O=S(=O)(c1ccccc1)N1CCN=C1SCc1c(F)cccc1Cl",
    "result": "18.4 µM (active)"
  },
  {
    "compound": "N#CC(C(=O)C12CC3CC(CC(C3)C1)C2)c1nc2ccccc2[nH]1 (stereo not drawn)",
    "result": "66 µM (active)"
  },
  {
    "compound": "O=C(Nc1cccc(Cl)c1)Nc1cc(S(=O)(=O)N2CCCCC2)ccc1Cl",
    "result": "4.59 µM (active)"
  }
]
